Data provenance is patent US20060189631A1.

System: human colon adenocarcinoma cell lines (HCT-116)
Assay: Determination of cell proliferation inhibition (Sulforodamine B)
Assay type: cell-based
Settings: HCT-116, 48 hours treatment
Experimental: The inhibitory capacity of cell proliferation of the compounds was determined in two human colon adenocarcinoma cell lines (HCT-116) obtained at the ATCC (American Type Collection). […] After the treatment period, the medium was removed and cells were dyed with Sulforodamine B. Finally, decolouration of the dyed cells was carried out with Tris base 10 mM and the plates were read at 493-530 nm in a plate reader. […]
pIC50: −log10 of the molar value.
Assay Metric: pIC50

Returns the measured pIC50 for the input molecule. Input: "CSc1ccc(-c2c(-c3ccc(F)cc3)nc3ncccn23)cc1Cl"
4.60 to 5.30

Name the recorded pIC50 for "Cc1ccc(-c2nc3ncccn3c2-c2ccc(SC(C)C)c(Cl)c2)cc1" .
> 5.30

Would you mind telling me what pIC50 value was observed for CC1=C(CC(=O)O)c2cc(F)ccc2/C1=C\c1ccc(S(C)(=O)=O)cc1 [Exisulind, reference compound] ?
< 4.60

Name the recorded pIC50 for "COc1ccc(-c2nc3ncccn3c2-c2ccc(SC)c(C)c2)cc1" .
> 5.30

Which pIC50 is reported for this molecule? "COc1ccc(-c2nc3ncccn3c2-c2ccc(SC(C)C)cc2)cc1"
> 5.30

State the recorded pIC50 for this entry: "CSc1ccc(-c2c(-c3ccc(Cl)cc3)nc3ncccn23)cc1Br"
> 5.30

If you can, please state the reported pIC50 value of Cc1ccc(-c2cc(C(F)(F)F)nn2-c2ccc(S(N)(=O)=O)cc2)cc1 [Celecoxib, reference compound] .
< 4.60

Given the entry "CSc1ccc(-c2c(-c3cccc(C)c3)nc3ncccn23)cc1Br" , report its measured pIC50.
> 5.30

What value of pIC50 has been recorded for this entry: "CSc1ccc(-c2nc3ncccn3c2-c2ccc(SC)c(Cl)c2)cc1"
> 5.30

Quick check: pIC50 of "CSc1ccc(-c2c(-c3ccc(Cl)cc3)nc3ncccn23)cc1Cl" ?
> 5.30

Which pIC50 value is on record for "CCCSc1ccc(-c2c(-c3ccc(OC)cc3)nc3ncccn23)cc1Cl" ?
> 5.30

# query: pIC50 of entry "COc1ccc(-c2nc3ncccn3c2-c2ccc(SC)cc2)cc1"
> 5.30

For the molecule shown here, "COc1ccc(-c2nc3ncccn3c2-c2ccc3c(c2)C(C)(C)CCS3)cc1" , give the reported pIC50.
> 5.30

If you can, please state the reported pIC50 value of "CSc1ccc(-c2c(-c3ccc(Br)cc3)nc3ncccn23)cc1" .
> 5.30

Given the molecule "COc1ccc(-c2nc3nc(C)ccn3c2-c2ccc(SC)c(Cl)c2)cc1" , what is its reported pIC50?
4.60 to 5.30

Consider the molecule shown here: "CSc1ccc(-c2nc3ncccn3c2-c2ccc(SC(C)C)c(Cl)c2)cc1" What is its recorded pIC50?
> 5.30

Entry COc1ccc(-c2nc3ncccn3c2-c2ccc([S+](C)[O-])c(Cl)c2)cc1 (stereo not drawn) : reported pIC50 = ?
4.60 to 5.30

Suppose we examine the molecule "COc1ccc(-c2nc3ncccn3c2-c2ccc(SC)c(Cl)c2)cc1" ; what pIC50 value has been reported?
> 5.30

---

Protein target, amino acids: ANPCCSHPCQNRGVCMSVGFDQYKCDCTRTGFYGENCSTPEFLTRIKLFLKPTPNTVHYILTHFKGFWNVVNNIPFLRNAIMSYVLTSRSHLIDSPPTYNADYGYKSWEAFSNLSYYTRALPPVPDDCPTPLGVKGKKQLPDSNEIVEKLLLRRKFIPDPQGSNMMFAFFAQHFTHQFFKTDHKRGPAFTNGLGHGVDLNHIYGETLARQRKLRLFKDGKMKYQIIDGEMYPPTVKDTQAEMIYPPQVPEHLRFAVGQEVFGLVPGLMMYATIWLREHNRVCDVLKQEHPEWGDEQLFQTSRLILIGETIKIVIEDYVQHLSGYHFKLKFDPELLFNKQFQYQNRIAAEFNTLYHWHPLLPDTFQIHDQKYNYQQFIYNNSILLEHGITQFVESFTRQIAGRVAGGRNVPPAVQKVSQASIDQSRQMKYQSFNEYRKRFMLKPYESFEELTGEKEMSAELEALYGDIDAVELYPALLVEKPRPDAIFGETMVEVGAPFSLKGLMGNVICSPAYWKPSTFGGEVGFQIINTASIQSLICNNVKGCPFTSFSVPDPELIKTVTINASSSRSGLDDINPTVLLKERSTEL
So I've got a bunch of molecules here, and I need their IC50 values.

Given "COc1ccc(-c2nc3ncccn3c2-c2ccc(SC)cc2)cc1" , state its recorded IC50.
5 to 25 µM

IC50 lookup needed for "COc1ccc(-c2nc3ncccn3c2-c2ccc3c(c2)C(C)(C)CCS3)cc1" , thanks.
> 25 µM

If you can, please state the reported IC50 value of "CSc1ccc(-c2c(-c3ccc(F)cc3)nc3ncccn23)cc1Cl" .
> 25 µM

Quick one: IC50 of "COc1ccc(-c2nc3ncccn3c2-c2ccc(SC)c(C)c2)cc1" ?
> 25 µM

Endpoint output: IC50 of CC1=C(CC(=O)O)c2cc(F)ccc2/C1=C\c1ccc(S(C)(=O)=O)cc1 [Exisulind, reference compound] . Value?
> 25 µM
